Listing of entries alongside the reported melting point.

{"compound": "FC(F)(F)c1ccc(/C=C/c2nc(COc3ccc(CCCn4ccnn4)cc3)co2)cc1", "melting point": "157 to 158 °C"}
{"compound": "OCC(O)Cc1nccn1CCCCc1ccc(OCc2coc(/C=C/c3c(F)cccc3F)n2)cc1 (centres unmarked)", "melting point": "123 to 125 °C"}
{"compound": "OCCc1nccn1CCCCc1ccc(OCc2coc(/C=C/c3ccc(F)cc3)n2)cc1", "melting point": "130 to 132 °C"}
{"compound": "OCCc1nccn1CCCCc1ccc(OCc2coc(/C=C/c3ccc(Cl)cc3)n2)cc1", "melting point": "127 to 128 °C"}
{"compound": "FC(F)(F)c1ccc(/C=C/c2nc(COc3cccc(CCCn4ccnn4)c3)co2)cc1 [Reference Example B6]", "melting point": "115 to 116 °C"}
{"compound": "Fc1ccc(/C=C/c2nc(COc3ccc(CCCCn4ccnn4)cc3)co2)c(F)c1", "melting point": "115 to 117 °C"}
{"compound": "OCC(O)Cc1nccn1CCCc1cccc(OCc2coc(/C=C/c3ccc(C(F)(F)F)cc3)n2)c1 (centres unmarked)", "melting point": "102 to 104 °C"}
{"compound": "Cc1ccccc1/C=C/c1nc(COc2ccc(CCCCn3ccnc3CCO)cc2)co1 [Reference Example B12]", "melting point": "91 to 93 °C"}

* * *

Listing of entries alongside the reported melting point.
endpoint-label: melting point

{"molecule": "Cc1ccc(/C=C/c2nc(COc3ccc(CCCCn4ccnc4CCO)cc3)co2)cc1", "endpoint-label": "melting point", "recorded-value": "108 to 109 °C"}
{"molecule": "OCCc1nccn1CCCCc1ccc(OCc2coc(/C=C/c3ccc(Br)cc3)n2)cc1", "endpoint-label": "melting point", "recorded-value": "149 to 150 °C"}
{"molecule": "Fc1ccc(/C=C/c2nc(COc3ccc(CCCCn4ccnn4)cc3)co2)cc1 [Reference Example B2]", "endpoint-label": "melting point", "recorded-value": "124 to 125 °C"}
{"molecule": "OCC(O)Cc1nccn1CCCc1cccc(OCc2coc(/C=C/c3ccc(F)cc3F)n2)c1 (centres unmarked)", "endpoint-label": "melting point", "recorded-value": "92 to 94 °C"}
{"molecule": "OCC(O)Cc1nccn1CCCCc1ccc(OCc2coc(/C=C/c3ccc(F)cc3F)n2)cc1 (centres unmarked) [Reference Example B26]", "endpoint-label": "melting point", "recorded-value": "126 to 128 °C"}
{"molecule": "Fc1ccc(/C=C/c2nc(COc3cccc(CCCn4ccnn4)c3)co2)cc1", "endpoint-label": "melting point", "recorded-value": "105 to 106 °C"}
{"molecule": "Cc1cccc(/C=C/c2nc(COc3ccc(CCCCn4ccnc4CC(O)CO)cc3)co2)c1 (centres unmarked)", "endpoint-label": "melting point", "recorded-value": "102 to 104 °C"}
{"molecule": "OCCc1nccn1CCCc1ccc(OCc2coc(/C=C/c3ccc(F)cc3F)n2)cc1", "endpoint-label": "melting point", "recorded-value": "94 to 96 °C"}
{"molecule": "OCC(O)Cc1nccn1CCCCc1ccc(OCc2coc(/C=C/c3ccc(C(F)(F)F)cc3)n2)cc1 (centres unmarked)", "endpoint-label": "melting point", "recorded-value": "142 to 143 °C"}
{"molecule": "CCc1ccc(/C=C/c2nc(COc3ccc(CCCCn4ccnc4CCO)cc3)co2)cc1", "endpoint-label": "melting point", "recorded-value": "94 to 95 °C"}
{"molecule": "OCCc1nccn1CCCCc1ccc(OCc2coc(/C=C/c3ccc(F)cc3F)n2)cc1 [Reference Example B19]", "endpoint-label": "melting point", "recorded-value": "93 to 95 °C"}
{"molecule": "OCC(O)Cc1nccn1CCCCc1ccc(OCc2coc(/C=C/c3ccc(F)cc3)n2)cc1 (centres unmarked)", "endpoint-label": "melting point", "recorded-value": "114 to 116 °C"}
{"molecule": "Cc1cccc(/C=C/c2nc(COc3ccc(CCCCn4ccnc4CCO)cc3)co2)c1", "endpoint-label": "melting point", "recorded-value": "109 to 111 °C"}
{"molecule": "Fc1ccc(/C=C/c2nc(COc3cccc(CCCn4ccnn4)c3)co2)c(F)c1", "endpoint-label": "melting point", "recorded-value": "89 to 90 °C"}

Data provenance is patent US20040058956A1.
